# System: Pancreatin
# ASSAY OVERVIEW: Protease stability in simulated intestinal fluid (Pancreatin-SIF, FaSSIF)
# Type: in vitro ADME
# CONDITION NOTES: 240 min, 1 μM peptide, 37° C., read-out: FaSSIF 240 (min), remaining percent of peptide
Starred links: 1 amine or outer side, 2 acyl side, 3 side chain; linkers in the order of their positions; H or OH if unused. Positions of bridges follow the written chain, without caps; N, C: chain ends. Non-standard residues stand in square brackets, D forms with d. Residues, ends and D or L forms follow the SMILES beside them. *: point of attachment. X3 = CN(CCCCC(=O)N[C@@H](CS[*:2])C(=O)[*:1])[*:3]; X6 = O=C(CCC(=O)[*:3])N[C@@H](CS[*:2])C(=O)[*:1]; Trp(7-Me) = Cc1cccc2c(C[C@H](N)C(=O)O)c[nH]c12; 2Nal = N[C@@H](Cc1ccc2ccccc2c1)C(=O)O; AEF = NCCOc1ccc(C[C@H](N)C(=O)O)cc1; 3Pal = N[C@@H](Cc1cccnc1)C(=O)O; αMeL = CC(C)C[C@](C)(N)C(=O)O; Me2NCH2CH2 = CN(C)CC*; Aib = CC(C)(N)C(=O)O; Sar = CNCC(=O)O
QUANTITY MEASURED: remaining at 4 h, 1 µM (%)
Report the value in % with no unit label.

{"columns": ["MOLECULE", "NUMERIC RESULT"],
 "data": [
  ["CC(=O)N[C@H]1CCCCNC(=O)[C@@H]2CSSC[C@H](NC(=O)[C@H](CCC(N)=O)NC(=O)[C@H](Cc3c[nH]c4ccccc34)NC1=O)C(=O)N[C@@H](Cc1ccc(OCCN)cc1)C(=O)N[C@@H](Cc1ccc3ccccc3c1)C(=O)NC(C)(C)C(=O)N[C@H](C(=O)N[C@@H](CC(N)=O)C(=O)N[C@@H](CC(N)=O)C(N)=O)CCC(=O)N(C)CCCCC(=O)N2 [compound 12] (Ac-KWQC[AEF][2Nal][Aib]ENN-NH2; linker 1-4-8 via X3)", 41]
]}

Attention now turns to another entry.
What value of remaining at 4 h, 1 µM has been recorded for this entry: CC(=O)NCCCC[C@@H]1NC(=O)[C@H](Cc2c[nH]c3c(C)cccc23)NC(=O)[C@@H](NC(C)=O)CCCCNC(=O)[C@@H]2CSSC[C@H](NC1=O)C(=O)N[C@@H](Cc1ccc(OCCN(C)C)cc1)C(=O)N[C@@H](Cc1ccc3ccccc3c1)C(=O)N[C@@](C)(CC(C)C)C(=O)N[C@H](C(=O)N[C@@H](CC(N)=O)C(=O)N[C@@H](Cc1cccnc1)C(=O)N(C)CC(N)=O)CCCCNC(=O)CCC(=O)N2 [compound 106] (Ac-K[Trp(7-Me)]K(Ac)CY(Me2NCH2CH2)[2Nal][αMeL]KN[3Pal][Sar]-NH2; linker 1-4-8 via X6)
74

----------
# ASSAY OVERVIEW: Solubility testing of peptides at different pH
# Format: physicochemical
# CONDITION NOTES: 50 mM phosphate buffer pH 7.4; target concentration 1 mg/ml; 2 hours agitation; read-out: Solubility Buffer pH 7.4
Starred links: 1 amine or outer side, 2 acyl side, 3 side chain; linkers in the order of their positions; H or OH if unused. Positions of bridges follow the written chain, without caps; N, C: chain ends. Non-standard residues stand in square brackets, D forms with d. Residues, ends and D or L forms follow the SMILES beside them. *: point of attachment. Trp(7-Me) = Cc1cccc2c(C[C@H](N)C(=O)O)c[nH]c12; 2Nal = N[C@@H](Cc1ccc2ccccc2c1)C(=O)O; αMeL = CC(C)C[C@](C)(N)C(=O)O; Suc = O=C(CCC(=O)[*:2])[*:1]; Me2NCH2CH2 = CN(C)CC*
QUANTITY MEASURED: solubility at 2 h

Query: solubility at 2 h; subject: CC(=O)NCCCC[C@@H]1NC(=O)[C@H](Cc2c[nH]c3c(C)cccc23)NC(=O)[C@H]([C@@H](C)O)NC(=O)[C@H](CC(N)=O)NC(=O)[C@@H]2CSSC[C@H](NC1=O)C(=O)N[C@@H](Cc1ccc(OCCN(C)C)cc1)C(=O)N[C@@H](Cc1ccc3ccccc3c1)C(=O)N[C@@](C)(CC(C)C)C(=O)N[C@H](C(=O)N[C@@H](CC(N)=O)C(=O)N[C@@H](Cc1c[nH]cn1)C(N)=O)CCCCNC(=O)CCC(=O)N2 [compound 23] (CNT[Trp(7-Me)]K(Ac)CY(Me2NCH2CH2)[2Nal][αMeL]KNH-NH2; disulfide 1-6; linker N-10 via Suc)
210 µg/mL
